The values you see were collected from PubChem BioAssay.

List of composite z-score values.
subjectOfTest: Fibroblast growth factor 2 (Homo sapiens)
assayText: basic fibroblast growth factor binding to printed compounds – biochemical, small-molecule microarray, 635/667 nm fluorescence, primary screen (AID 1133)
testConditions: FGF2, fluorescence 635/667, higher = more signal
Lab note: record just the number, no unit beside it.

compound	subjectOfTest	measurementLabel	recordedNumber
COCCOC(=O)N1C(=O)[C@@]2(c3ccccc31)[C@H](c1ccc(O)cc1)N1[C@H](c3ccccc3)[C@H](c3ccccc3)OC(=O)[C@H]1[C@@H]2C(N)=O	Fibroblast growth factor 2 (Homo sapiens)	composite z-score	-0.239
O=C(NCC(O)CO)[C@@]1(Cc2ccccc2)COC(c2ccc(OCCCO)cc2)=N1 (some centres not stated)	Fibroblast growth factor 2 (Homo sapiens)	composite z-score	0.0393
COCCOC(=O)N1C(=O)[C@@]2(c3cc(C#Cc4ccc(OC)cc4)ccc31)[C@H](c1ccc(O)cc1)N1[C@H](c3ccccc3)[C@H](c3ccccc3)OC(=O)[C@H]1[C@@H]2C(=O)N1CCN(c2ncccn2)CC1	Fibroblast growth factor 2 (Homo sapiens)	composite z-score	0.712
[N-]=[N+]=NCc1ccccc1[C@H]1OC(c2ccc(OCCCO)cc2)=N[C@@]1(Cc1ccccc1)C(=O)NCC(O)CO (some centres not stated)	Fibroblast growth factor 2 (Homo sapiens)	composite z-score	-0.0723
CCCCCN1CC=CC23O[C@@H]4C=CCCOC(=O)C4[C@H]2C(=O)N(CCCO)[C@@H]3C1=O (some centres not stated)	Fibroblast growth factor 2 (Homo sapiens)	composite z-score	-0.311
Cc1ccc(S[C@]2(C(=O)NCc3ccccc3)CC(=O)N(Cc3cc(C(F)(F)F)cc(C(F)(F)F)c3)[C@@H]2c2ccc(CO)cc2)cc1	Fibroblast growth factor 2 (Homo sapiens)	composite z-score	-0.568

(Q) Look at this compound and give its reported composite z-score. C=C(COC)/C(=C/C[C@H](OC(C)=O)c1ccccc1OCCO)c1cnc2ccccc2c1
(A) 0.394

====

List of z-score values.
assayText: compound effects on hepatocellular carcinoma cell viability – HepG2, calcein-AM fluorescence, 48 h, basal, profiling panel (AID 1164); further: test concentration not given here
testConditions: higher = more signal

Worked examples follow.
compound	measurementLabel	result
CN(C)CCCC[C@@H]1NC(=O)[C@@H]2C[C@H](C(=O)NCCCCCN)[C@H](c3ccc(O)cc3)N2C1=O	z-score	-0.0772
O=[N+]([O-])c1ccc(C[n+]2ccc(CCCO)cc2)o1	z-score	-0.405
CCOC(=O)C[C@H]1[C@H](OC(=O)c2ccccc2-c2ccccc2)[C@@H](NC(=O)c2ccc(-c3ccccc3)cc2)c2cc(OCCCO)ccc2N1C(=O)c1ccccc1	z-score	0.188
O=c1cccc(-c2cccc3ccccc23)o1	z-score	0.0962
CC(C)C(CO)N1C(=O)[C@@H]2[C@H]3C(=O)OCC=C[C@H]3OC23C=CCN(c2ccc4ccccc4c2)C(=O)[C@@H]13 (stereo partly specified)	z-score	0.21
C[N+](C)(C)CCCC[C@@H]1NC(=O)[C@@H]2C[C@H](C(=O)NCCCCCCNC(=O)CS)[C@H](c3cccc(OCCO)c3)N2C1=O	z-score	1.5
[N-]=[N+]=NCc1ccccc1[C@@H]1OC(c2ccc(OCCCO)cc2)=N[C@]1(Cc1ccccc1N=[N+]=[N-])C(N)=O	z-score	0.0804
CCOC(=O)C[C@H]1[C@H](OC(=O)c2cc3ccccc3oc2=O)[C@@H](NC(=O)c2ccc3ccccc3c2)c2cc(OCCCO)ccc2N1C(=O)c1ccccc1	z-score	0.582
O=c1cccc(-c2ccc3ccccc3c2)o1	z-score	-0.644
COCC1=C([C@H](O)CCc2ccccc2)[C@H](CO)[C@@H]2C(=O)N(Cc3ccccc3)C(=O)[C@@H]2C1	z-score	0.984

(Q) Look at this compound and give its reported z-score. CC[C@@H]1C=C(C(=O)O)[C@H](c2ccc(C(C)C)cc2)N1S(=O)(=O)c1ccc(C)cc1
(A) -0.391
